System: HOP-92 NSCLC
procedure-text: NCI tumour cell line growth inhibition, 48 h
measured-parameter: TGI

[Q] Param item = COC(=O)[C@]1(C)C(OC)=CC(=O)C2C1[C@H]1CCC[C@@H]21 (stereo not given in full) ; retrieve measured TGI.
[A] > 100 µM

[Q] Param item = COc1cc2c3c(c1OC)C1(C=CC(=O)C=C1)CC3NCC2 (stereo not given) ; retrieve measured TGI.
[A] > 100 µM

[Q] Param item = CN(C)CCNC(=O)c1cc(NC(=O)c2cc(NC(=O)CC/C=C3/[C@@H]4CC[C@H]3N=N4)cn2C)cn1C ; retrieve measured TGI.
[A] > 100 µM

[Q] Param item = N=c1ccc2nc3c(cc(N)c4ccccc43)oc-2c1 ; retrieve measured TGI.
[A] 3.6 µM

[Q] Param item = C=C(CCOC)CCC1CCCCC(=C)[C@H]1O (stereo not given in full) ; retrieve measured TGI.
[A] > 100 µM
